- Test system: HIV-1KM018 virus strain
- ASSAY_NAME: Inhibition of viral replication in PBMC infected with HIV-1KM018
- Format: cell-based
- CONDITION_DETAILS: PBMC cells infected with HIV-1KM018
MEASURED_PARAMETER: therapeutic index (TI)
// keep it numeric: no unit symbol after the value

Here are 2 compounds together with their reported answers.
# COMPOUND, therapeutic index (TI)
data = [
    ("Cc1ccc([C@H](CCN2C3CCC2CC(n2c(C)nnc2C(C)C)C3)NC(=O)C2CCC(F)(F)CC2)s1 (stereo partly shown)", 1937.2),
    ("Cc1nnc(C(C)C)n1C1CC2CCC(C1)N2CC[C@H](NC(=O)C1CCCCC1)c1cccs1 (stereo partly shown)", 481.1),
]

Let us move to another entry and its therapeutic index (TI).
Give its therapeutic index (TI) value. Item: Cc1nnc(C(C)C)n1C1CC2CCC(C1)N2CC[C@H](NC(=O)C1CCCC1)c1cccs1 (stereo partly shown)
4935.2

----------
- ASSAY_NAME: in vivo
- CONDITION_DETAILS: male, rat, 10 mg/kg
MEASURED_PARAMETER: AUC(0-inf) (ng·h/mL)
Provide the reading as a plain figure in ng·h/mL.

Give its AUC(0-inf) value. Item: Cc1ccc([C@H](CCN2C3CCC2CC(n2c(C)nnc2C(C)C)C3)NC(=O)C2CCC(F)(F)CC2)s1 (stereo partly shown) [Compound 29]
2330

----------
- ASSAY_NAME: in vivo
- CONDITION_DETAILS: male, rat, po, 20 mg/kg
Reported AUC(0-t) values are given for each entry in this list.
Provide the reading as a plain figure in ng·h/mL.

Here are 4 compounds together with their reported answers.
# COMPOUND, MEASURED_PARAMETER, UNIT_LABEL, TEST_RESULT
data = [
    ("Cc1nnc(C(C)C)n1C1CC2CCC(C1)N2CC[C@H](NC(=O)C1CCCCC1)c1cccs1 (some centres unmarked) [Compound 16]", "AUC(0-t)", "ng·h/mL", 1510),
    ("Cc1nnc(C(C)C)n1C1CC2CCC(C1)N2CC[C@H](NC(=O)C1CCC(F)(F)CC1)c1ccsc1 (some centres unmarked) [Compound 22]", "AUC(0-t)", "ng·h/mL", 1210),
    ("Cc1nnc(C(C)C)n1C1CC2CCC(C1)N2CC[C@H](NC(=O)C1CCCC1)c1cccs1 (some centres unmarked) [Compound 18]", "AUC(0-t)", "ng·h/mL", 2800),
    ("Cc1ccc([C@H](CCN2C3CCC2CC(n2c(C)nnc2C(C)C)C3)NC(=O)C2CCC(F)(F)CC2)s1 (some centres unmarked) [Compound 29]", "AUC(0-t)", "ng·h/mL", 1870),
]

Let us move to another entry and its AUC(0-t).
Give its AUC(0-t) value. Item: Cc1nnc(C(C)C)n1C1CC2CCC(C1)N2CC[C@H](NC(=O)C1CCC(F)(F)CC1)c1cccs1 (some centres unmarked) [Compound 14]
1110

----------
- ASSAY_NAME: in vivo
- CONDITION_DETAILS: male, rat, iv, 10 mg/kg
Reported AUC(0-inf) values are given for each entry in this list.
The reply should consist of the numeric value with the unit placed after it.

Here are 3 compounds together with their reported answers.
# COMPOUND, MEASURED_PARAMETER, TEST_RESULT
measured = [
    ("Cc1nnc(C(C)C)n1C1CC2CCC(C1)N2CC[C@H](NC(=O)C1CCC(F)(F)CC1)c1ccsc1 (stereo partly shown) [Compound 22]", "AUC(0-inf)", "4160 ng·h/mL"),
    ("Cc1nnc(C(C)C)n1C1CC2CCC(C1)N2CC[C@H](NC(=O)C1CCCCC1)c1cccs1 (stereo partly shown) [Compound 16]", "AUC(0-inf)", "5110 ng·h/mL"),
    ("Cc1nnc(C(C)C)n1C1CC2CCC(C1)N2CC[C@H](NC(=O)C1CCCC1)c1cccs1 (stereo partly shown) [Compound 18]", "AUC(0-inf)", "1600 ng·h/mL"),
]

Give its AUC(0-inf) value. Item: Cc1nnc(C(C)C)n1C1CC2CCC(C1)N2CC[C@H](NC(=O)C1CCC(F)(F)CC1)c1cccs1 (stereo partly shown) [Compound 14]
7060 ng·h/mL

----------
- MEASUREMENT_TARGET: CCR5 (Homo sapiens (Human), UniProt P51681)
- Sequence (P51681 whole entry): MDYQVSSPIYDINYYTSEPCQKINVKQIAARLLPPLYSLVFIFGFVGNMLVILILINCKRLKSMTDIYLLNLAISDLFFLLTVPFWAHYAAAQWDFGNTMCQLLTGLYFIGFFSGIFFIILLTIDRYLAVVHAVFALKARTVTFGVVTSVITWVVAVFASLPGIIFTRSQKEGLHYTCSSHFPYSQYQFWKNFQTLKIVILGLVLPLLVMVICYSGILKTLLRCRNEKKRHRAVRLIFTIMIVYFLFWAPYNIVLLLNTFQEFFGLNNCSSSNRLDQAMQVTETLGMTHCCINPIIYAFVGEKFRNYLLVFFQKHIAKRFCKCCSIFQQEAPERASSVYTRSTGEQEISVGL
- ASSAY_NAME: Calcium flux inhibition experiment
- Format: cell-based
- CONDITION_DETAILS: HEK293/CCR5-Gα16 cell line, calcium flux; read-out: CCR5 IC50
- From the text: Experiment apparatus: FlexStation II Experiment materials: HEK293/CCR5-Gα16 cell line, Fluo-4calcium dye (fluorescent-4 calcium ion dye) and FlexStation instrument. Experiment theory: Activation of the receptor can cause the activation of Gα16 protein, thereby activating phospholipase C (PLC) to generate IP3 and DAG by establishing CCR5 and Ga16 co-transfected cell line. […] Ultimately, the level of activated Ga protein can be reflected by measuring the excited fluorescence intensity. […]
MEASURED_PARAMETER: IC50 (nM)
Provide the reading as a plain figure in nM.

Here are 3 compounds together with their reported answers.
# COMPOUND, IC50 (nM)
rows = [
    ("CC(=O)NC(CCN1CCC(n2c(C)nnc2C(C)C)CC1)c1cccs1 (stereo not shown)", 32.6),
    ("Cc1nnc(C(C)C)n1C1CC2CCC(C1)N2CC[C@H](NC(=O)C1CCCCC1)c1ccc(Cl)s1 (stereo partly shown)", 8.14),
    ("COC(=O)N1CCc2c(nc(C)n2C2CC3CCC(C2)N3CC[C@H](NC(C)=O)c2nccs2)C1 (stereo partly shown)", 4.77),
]

Let us move to another entry and its IC50.
Give its IC50 value. Item: Cc1nnc(C(C)C)n1C1CC2CCC(C1)N2CC[C@H](NC(=O)Cn1ncnn1)c1ccc(Cl)s1 (stereo partly shown)
9.85

----------
Reported IC50 values are given for each entry in this list.
- MEASUREMENT_TARGET: CCR5 (Homo sapiens (Human))
- ASSAY_NAME: Calcium flux inhibition experiment
- Assay type: cell-based
- CONDITION_DETAILS: HEK293/CCR5-Gα16 cell line, calcium flux; read-out: CCR5 IC50
Provide the reading as a plain figure in nM.

Here are 10 compounds together with their reported answers.
# COMPOUND, MEASURED_PARAMETER, TEST_RESULT
data = [
    ("CC(=O)N[C@@H](CCN1C2CCC1CC(n1c(C)nc3c1CCN(C(C)=O)C3)C2)c1ccc(F)s1 (stereo partly drawn)", "IC50", 6.57),
    ("Cc1nnc(C(C)C)n1C1CCN(CC[C@H](NC(=O)C2CCCC2)c2cccs2)CC1", "IC50", 2.55),
    ("Cc1nnc(C(C)C)n1C1CC2CCC(C1)N2CC[C@H](NC(=O)C1CCCC1)c1ccc(F)s1 (stereo partly drawn)", "IC50", 1.41),
    ("Cc1nnc(C(C)C)n1C1CCN(CC[C@H](NC(=O)C2CCCCC2)c2cccnc2)CC1", "IC50", 35.2),
    ("Cc1nnc(C(C)C)n1C1CC2CCC(C1)N2CC[C@H](NC(=O)C1CCCCC1)c1nccs1 (stereo partly drawn)", "IC50", 15.6),
    ("CC(=O)N[C@@H](CCN1C2CCC1CC(n1c(C)nc3c1CCN(C(=O)C(C)C)C3)C2)c1cc(C)cs1 (stereo partly drawn)", "IC50", 13.3),
    ("Cc1ccc([C@H](CCN2C3CCC2CC(n2c(C)nnc2C(C)C)C3)NC(=O)C2CCN(S(C)(=O)=O)CC2)s1 (stereo partly drawn)", "IC50", 2.48),
    ("Cc1nnc(C(C)C)n1C1CC2CCC(C1)N2CC[C@H](NC(=O)C1CCCCC1)c1cccs1 (stereo partly drawn)", "IC50", 2.23),
    ("Cc1nnc(C(C)C)n1C1CCN(CC[C@H](NC(=O)C2CCC(F)(F)CC2)c2cccs2)CC1", "IC50", 3.4),
    ("CC(=O)N[C@@H](CCN1C2CCC1CC(n1c(C)nc3c1CCN(C(=O)C(C)C)C3)C2)c1nccs1 (stereo partly drawn)", "IC50", 32.3),
]

Give its IC50 value. Item: Cc1ccc([C@H](CCN2C3CCC2CC(n2c(C)nnc2C(C)C)C3)NC(=O)c2ccccc2)s1 (stereo partly drawn)
8.35

Give its IC50 value. Item: CNC(=O)c1ccc([C@H](CCN2C3CCC2CC(n2c(C)nnc2C(C)C)C3)NC(=O)C2CCCCC2)s1 (stereo partly drawn)
8.36

Give its IC50 value. Item: Cc1nnc(C(C)C)n1C1CC2CCC(C1)N2CC[C@H](NC(=O)Cc1nnn[nH]1)c1ccc(Cl)s1 (stereo partly drawn)
1.85

----------
- ASSAY_NAME: in vivo
- CONDITION_DETAILS: male, rat, iv, 10 mg/kg
MEASURED_PARAMETER: MRT (min)
Provide the reading as a plain figure in min.

Here are 3 compounds together with their reported answers.
# COMPOUND, TEST_RESULT
records = [
    ("Cc1nnc(C(C)C)n1C1CC2CCC(C1)N2CC[C@H](NC(=O)C1CCCC1)c1cccs1 (stereo partly shown)", 119),
    ("Cc1nnc(C(C)C)n1C1CC2CCC(C1)N2CC[C@H](NC(=O)C1CCC(F)(F)CC1)c1cccs1 (stereo partly shown)", 42.6),
    ("Cc1nnc(C(C)C)n1C1CC2CCC(C1)N2CC[C@H](NC(=O)C1CCCCC1)c1cccs1 (stereo partly shown)", 47.4),
]

Give its MRT value. Item: Cc1nnc(C(C)C)n1C1CC2CCC(C1)N2CC[C@H](NC(=O)C1CCC(F)(F)CC1)c1ccsc1 (stereo partly shown)
50.4
